From: patent US20250332266A1

Assign DC50 to each entry below.
Target: EGFR L858R (BaF3-L858R) (Homo sapiens, UniProt P00533, L858R)
Construct: host or cells: BaF3
Sequence (P00533 25-1210 L858R): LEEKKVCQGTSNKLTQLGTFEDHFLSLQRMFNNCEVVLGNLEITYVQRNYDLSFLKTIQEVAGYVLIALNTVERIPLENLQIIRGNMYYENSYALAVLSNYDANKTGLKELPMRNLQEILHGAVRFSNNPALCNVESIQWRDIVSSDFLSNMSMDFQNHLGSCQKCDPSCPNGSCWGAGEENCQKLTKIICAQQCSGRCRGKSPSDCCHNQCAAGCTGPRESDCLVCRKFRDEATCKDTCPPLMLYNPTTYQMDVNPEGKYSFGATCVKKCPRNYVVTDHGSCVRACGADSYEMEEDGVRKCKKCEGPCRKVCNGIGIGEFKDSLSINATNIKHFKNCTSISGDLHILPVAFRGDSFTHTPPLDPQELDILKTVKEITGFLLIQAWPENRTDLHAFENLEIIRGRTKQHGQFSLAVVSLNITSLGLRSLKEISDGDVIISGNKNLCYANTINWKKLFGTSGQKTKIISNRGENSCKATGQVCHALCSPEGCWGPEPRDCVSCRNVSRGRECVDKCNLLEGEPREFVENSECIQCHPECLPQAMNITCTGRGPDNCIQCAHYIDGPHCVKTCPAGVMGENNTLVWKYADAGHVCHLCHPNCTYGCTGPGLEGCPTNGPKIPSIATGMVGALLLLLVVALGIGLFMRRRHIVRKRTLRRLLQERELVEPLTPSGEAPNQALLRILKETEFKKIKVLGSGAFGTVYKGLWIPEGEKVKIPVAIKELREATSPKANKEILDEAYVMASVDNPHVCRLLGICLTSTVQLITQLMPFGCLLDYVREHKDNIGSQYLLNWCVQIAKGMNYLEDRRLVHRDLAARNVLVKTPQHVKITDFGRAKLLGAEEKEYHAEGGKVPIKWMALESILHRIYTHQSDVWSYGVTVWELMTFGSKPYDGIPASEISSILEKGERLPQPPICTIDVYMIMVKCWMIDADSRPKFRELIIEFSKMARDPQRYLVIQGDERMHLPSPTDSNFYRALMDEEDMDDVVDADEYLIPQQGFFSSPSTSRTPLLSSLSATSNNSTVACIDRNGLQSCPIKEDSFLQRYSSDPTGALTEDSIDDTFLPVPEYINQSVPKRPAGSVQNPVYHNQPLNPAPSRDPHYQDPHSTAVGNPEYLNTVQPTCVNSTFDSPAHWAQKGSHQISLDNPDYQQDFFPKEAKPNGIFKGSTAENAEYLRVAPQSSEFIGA
Assay: EGFR degradation, HTRF total-EGFR assay, BaF3-L858R cells
Format: cell-based
Settings: 16 h treatment
One number for each entry, in nM.

Example entries and their recorded answers appear below.
[[record]]
molecule = "Cc1cc2cc(n1)-c1cnn(C)c1OC[C@H]1C[C@@H](CN3/C(=N/C2=O)Nc2ccc(N4CCN(C5CN(CCc6c(C)cc(C7CCC(=O)NC7=O)nc6C)C5)CC4)cc23)C1 (some centres unmarked)"
metric = "DC50"
measurement = 11.9

[[record]]
molecule = "CCc1nc(C2CCC(=O)NC2=O)ccc1N1CCC(N2CCN(c3ccc4c(c3)N3C[C@H]5C[C@@H](COc6c(cnn6C)-c6cc(cc(C)n6)C(=O)/N=C/3N4)C5)CC2)CC1 (some centres unmarked)"
metric = "DC50"
measurement = 37.8

[[record]]
molecule = "CCc1nc(C2CCC(=O)NC2=O)ccc1N1CCC(N2CC(N3CCN(c4ccc5c(c4)N4C[C@H]6C[C@@H](COc7c(cnn7C)-c7cc(cc(C)n7)C(=O)/N=C/4N5)C6)CC3)C2)CC1 (some centres unmarked)"
metric = "DC50"
measurement = 16

[[record]]
molecule = "Cc1cc2cc(n1)-c1cnn(C)c1OC[C@H]1C[C@@H](CN3/C(=N/C2=O)Nc2ccc(N4CCN(C5CCN(c6c(C)cc(C7CCC(=O)NC7=O)nc6C)CC5)CC4)cc23)C1 (some centres unmarked)"
metric = "DC50"
measurement = 11.9


Data point: Cc1cc2cc(n1)-c1cnn(C)c1OC[C@H]1C[C@@H](CN3/C(=N/C2=O)Nc2ccc(N4CCN(C5CCN(c6cc(F)c(C7CCC(=O)NC7=O)nc6C)CC5)CC4)cc23)C1 (some centres unmarked) ; DC50 = 52.3
